Test system: Setaria viridis
PROCEDURE_DETAILS: Herbicidal pre-emergence action
Type: in vivo
CONDITION: pre-emergence method, 80 g/ha, greenhouse, visual assessment vs untreated controls
Text: Seeds of monocotylidonous and dicotylidonous weed and crop plants are placed in sandy loam in wood fibre pots and covered with soil. The test compounds, formulated in the form of wettable powders (WP), are then, as an aqueous suspension with a water application rate of 600 l/ha (converted), with 0.2% of wetting agent added, applied to the surface of the covering soil in different amounts. […]
Labelling field: enter Criterion met if recorded herbicidal effect SETVI is less than 90%. Enter Criterion not met if it equals or exceeds that cut-off.

Given the entry CCc1cc(C)cc(CC)c1C1=C(OC(=O)OC(C)C)C2CC3(COC(C)(C)O3)CC2C1=O (centres unmarked) , would its reported herbicidal effect SETVI be below 90%? Criterion met

Given the entry C=C1CC2C(=O)C(c3c(C)cc(C)cc3CC)=C(OC(=O)C(C)(C)C)C2C1 (centres unmarked) , would its reported herbicidal effect SETVI be below 90%? Criterion not met

Given the entry CCc1cc(C)cc(CC)c1C1=C(OC(=O)C(C)(C)CCl)C2CC3(CC2C1=O)OCCCO3 (centres unmarked) , would its reported herbicidal effect SETVI be below 90%? Criterion met

Given the entry Cc1cc(C)c(C2=C([O-])C3CC4(CC3C2=O)OCC(C)CO4)c(C)c1.[Na+] (centres unmarked) , would its reported herbicidal effect SETVI be below 90%? Criterion met

Given the entry CCc1cc(C)cc(CC)c1C1=C(OC(=O)OC)C2CC3(CC2C1=O)OCCCS3 (mixture of isomers) , would its reported herbicidal effect SETVI be below 90%? Criterion met

The measured values listed here are drawn from patent US8367873B2.
